Assayed system: T1, hRET.mmh (human, UniProt P07949 29-635, biotinylated in the ELISA of Example 4 (biot-hRET.mmh); not in the SPR of Example 3)
T1 construct: also called biot-hRET.mmh; soluble monomeric human RET
Run description: competition sandwich ELISA: 1 nM biot-hRET.mmh + antibody, plate-coated GDNF/GFRα1 co-complex
Measured endpoint: % Max Blocking (%)
One number for each entry, in %.

{"columns": ["Binder", "Value unit", "% Max Blocking"],
 "data": [
  ["H4H7086N (antibody, human IgG4, V domains shown, human IgG4 Fc form of 7086N; also called H4H7086P) VH: QVQLVESGGGVVQPGRSLRLSCVVSGFTFSNYGMHWVRQGPGRGLEWLALIWYDGSDKYYAESVRGRFTISRDNSKNTVYLQMNSLRAEDTAMYYCTRDRIFDYWGQGTLVTVSS VL: AIQMTQSPSSLSASVGDRVTITCRASQDIRNDLGWYQHNPGKAPNLLIYAASTLQIGVPSRFRGSGSGTDFTLTISSLQPEDFATYYCLQDFDYPLSFGGGTKVEIR", "%", 97]
]}

# input for lookup
Lab note: H4H8058P (antibody, human IgG4, V domains shown, human IgG4 Fc (H4H prefix)) VH: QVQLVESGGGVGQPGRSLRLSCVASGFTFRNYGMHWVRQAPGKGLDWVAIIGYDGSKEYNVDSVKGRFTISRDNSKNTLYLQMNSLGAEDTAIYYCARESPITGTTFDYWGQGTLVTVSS VL: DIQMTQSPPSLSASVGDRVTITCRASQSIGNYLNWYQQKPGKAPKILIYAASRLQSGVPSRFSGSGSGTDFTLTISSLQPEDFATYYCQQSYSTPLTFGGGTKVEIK gave % Max Blocking of 93
